Provenance of the data: patent US20080234262A1

System: breast line MDA468
runDescription: In vitro cell culture growth assay (MTS), MDA468
Assay type: cell-based, human
conditionSet: Homo sapiens, 72 h, MDA468 cells, three days after drug treatment
Measured pIC50, listed per entry.
Quick note: pIC50 values are minus log10 of concentrations in mol/L.

# example entries with known answers
# molecule, targetDesc, reportedEndpoint, resultValue
rows = [
    ("CNC(=O)Nc1ccc(-c2nc(N3CCOCC3)c3cnn(C4CCN(C(=O)c5ccc(C)cc5)CC4)c3n2)cc1 [Example 367]", "breast line MDA468", "pIC50", 7.00),
    ("COC(=O)N1CCC(n2ncc3c(N4CCOCC4)nc(-c4ccc(NC(=O)Nc5ccncc5F)cc4)nc32)CC1", "breast line MDA468", "pIC50", 7.01),
]

Kindly note the recorded pIC50 for CONC(=O)Nc1ccc(-c2nc(N3CCOCC3)c3cnn(-c4ccccc4)c3n2)cc1 [Compound 541] , which is 5.30

The recorded pIC50 for O=C(NCCO)Nc1ccc(-c2nc(N3CCOCC3)c3cnn(C4CCN(C(=O)c5cccnc5)CC4)c3n2)cc1 [Compound 549] is 5.05

Per the records, this molecule ( Nc1ccc(-c2nc(N3CCOCC3)c3cnn(C4CCN(Cc5cccnc5)CC4)c3n2)cn1 ) has pIC50 equal to 5.96

In plain terms, CNC(=O)Nc1ccc(-c2nc(N3CCOCC3)c3cnn(C4CCN(Cc5ccccc5O)CC4)c3n2)cc1 has a documented pIC50 of 6.52

Data point: CNC(=O)Nc1ccc(-c2nc(N3CCOCC3)c3cnn(C4CCN(C(=O)c5cccc(C(F)(F)F)c5)CC4)c3n2)cc1 [Compound 605] ; pIC50 = 6.80

Consider Nc1cccc(-c2nc(N3CCOCC3)c3cnn(-c4ccccc4)c3n2)n1 . Its measured pIC50 is 4.22

The molecule Cc1cc(NC(=O)Nc2ccc(-c3nc(N4CCOCC4)c4cnn(C5CCN(C(=O)OC(C)(C)C)CC5)c4n3)cc2)on1 showed pIC50 equal to 5.89

Reported pIC50 for c1cc2cc(-c3nc(N4CCOCC4)c4cnn(CCN5CCNCC5)c4n3)ccc2[nH]1 was 4.22

Data point: CNC(=O)Nc1ccc(-c2nc(N3CCOCC3)c3cnn(C4CCN(C(=O)N(C)C)CC4)c3n2)cc1 ; pIC50 = 6.30

Lab note: measured pIC50 of O=C(NCCF)Nc1ccc(-c2nc(N3CCOCC3)c3cnn(C4CCN(Cc5ccccc5)CC4)c3n2)cc1 was 7.56

Lab note: CC(C)(C)OC(=O)N1CCC(n2ncc3c(N4CCOCC4)nc(-c4ccc(NC(=O)Nc5ccc(CCO)cc5)cc4)nc32)CC1 gave pIC50 of 7.00

Lab note: CNC(=O)Nc1ccc(-c2nc(N3CCOCC3)c3cnn(C4CCC(=O)CC4)c3n2)cc1 [Example 322] gave pIC50 of 6.70

====

Test system: breast line MDA468
runDescription: In vitro cell culture growth assay (MTS), MDA468
Type: cell-based, human
conditionSet: Homo sapiens, 72 h, MDA468 cells, three days after drug treatment
reportedEndpoint: pIC50
Remember the convention: pIC50 equals -log10 of concentration in molar.

Look over these answered cases.
# compound, targetDesc, reportedEndpoint, resultValue
measured = [
    ("c1cc2cc(-c3nc(N4CCOCC4)c4cnn(C5CCCCC5)c4n3)ccc2[nH]1 [Example 90]", "breast line MDA468", "pIC50", 5.49),
    ("CNC(=O)Nc1ccc(-c2nc(N3CCOCC3)c3cnn(C4CCN(C(=O)c5cnccn5)CC4)c3n2)cc1 [Example 422]", "breast line MDA468", "pIC50", 6.40),
    ("O=C(Nc1ccc(-c2nc(N3CCOCC3)c3cnn(C4CCN(Cc5ccccc5)CC4)c3n2)cc1)Nc1ncc[nH]1 [Compound 570]", "breast line MDA468", "pIC50", 5.46),
    ("O=C(NCCF)Nc1ccc(-c2nc(N3CCOCC3)c3cnn(C4CCN(CCCCO)CC4)c3n2)cc1 [Compound 747]", "breast line MDA468", "pIC50", 5.18),
    ("COC(=O)N1CCC(n2ncc3c(N4CCOC(C)C4)nc(-c4ccc(NC(=O)Nc5ccccn5)cc4)nc32)CC1 (stereo not shown) [Compound 847]", "breast line MDA468", "pIC50", 4.82),
]

Summary for this compound, Cn1ccc2cc(-c3nc(N4CCOCC4)c4cnn(C5CCN(Cc6ccccc6)CC5)c4n3)ccc21 [Compound 89] : pIC50 is 4.70

GET /value?item= C=COC(=O)N1CCC(n2ncc3c(N4CCOCC4)nc(-c4ccc(NC(=O)NC)cc4)nc32)CC1 [Compound 753] &field=pIC50 returns 6.96
